- assay_system: RET(KD: 658-1114 G810R) (Homo sapiens, UniProt P07949, G810R)
- Construct: 658-1114; expressed in transfected cells; host or cells: 293T.165 (293T cells, generated in-house)
- test_details: HiBiT-Degradation, RET G810R degradation assay (Nano-Glo HiBiT Lytic), 293T.165 cells
- Assay type: cell-based
- test_parameters: HiBiT-Degradation
attribute_measured: 293T.165 RET(KD: 658-1114 G810R) 6.0 hours (Emax)

Some molecules with recorded 293T.165 RET(KD: 658-1114 G810R) 6.0 hours (Emax):
N#Cc1cnn2cc(-c3cnn(C4CCN(C(=O)CN5CCC(c6ccc(NC7CCC(=O)NC7=O)cc6F)CC5)CC4)c3)cc(-c3ccc(N4CC5CCC(C4)N5Cc4ccccn4)nc3)c12 (centres unmarked)	+++ (<50% = +++)
N#Cc1cnn2cc(-c3cnn(C4CCN(C(=O)CN5CCC(c6ccc(NC7CCC(=O)NC7=O)cc6F)CC5)CC4)c3)nc(-c3ccc(N4CCN(Cc5ccccn5)CC4)cc3)c12 (centres unmarked)	+++ (<50% = +++)
N#Cc1cnn2cc(-c3ccc(N4CCN(C(=O)CN5CCC(c6ccc(NC7CCC(=O)NC7=O)cc6)CC5)CC4)cc3)cc(-c3ccc(N4CC5CC5C4)nc3)c12 (centres unmarked)	++++ (< 30% = ++++)
CC(C)NC(=O)C1(C)CCN(c2ccc(-c3cc(-c4ccc(N5CCN(C(=O)CN6CCC(c7ccc(NC8CCC(=O)NC8=O)cc7F)CC6)CC5)cc4)cn4ncc(C#N)c34)cn2)CC1 (centres unmarked)	++++ (< 30% = ++++)

Now consider the entry below.
GET 293T.165 RET(KD: 658-1114 G810R) 6.0 hours (Emax) | system: RET(KD: 658-1114 G810R) (Homo sapiens, UniProt P07949, G810R) | item: N#Cc1cnn2cc(-c3cnn(C4CCN(CCN5CCC(c6ccc(NC7CCC(=O)NC7=O)cc6F)CC5)CC4)c3)cc(-c3ccc(N4CCN(Cc5ccccn5)CC4)nc3)c12 (centres unmarked)
+++ (<50% = +++)

====

- assay_system: RET (658-1114) (Homo sapiens)
- Construct: 658-1114; expressed in transfected cells; host or cells: 293T.144 (293T cells, generated in-house)
- Sequence (P07949 658-1114): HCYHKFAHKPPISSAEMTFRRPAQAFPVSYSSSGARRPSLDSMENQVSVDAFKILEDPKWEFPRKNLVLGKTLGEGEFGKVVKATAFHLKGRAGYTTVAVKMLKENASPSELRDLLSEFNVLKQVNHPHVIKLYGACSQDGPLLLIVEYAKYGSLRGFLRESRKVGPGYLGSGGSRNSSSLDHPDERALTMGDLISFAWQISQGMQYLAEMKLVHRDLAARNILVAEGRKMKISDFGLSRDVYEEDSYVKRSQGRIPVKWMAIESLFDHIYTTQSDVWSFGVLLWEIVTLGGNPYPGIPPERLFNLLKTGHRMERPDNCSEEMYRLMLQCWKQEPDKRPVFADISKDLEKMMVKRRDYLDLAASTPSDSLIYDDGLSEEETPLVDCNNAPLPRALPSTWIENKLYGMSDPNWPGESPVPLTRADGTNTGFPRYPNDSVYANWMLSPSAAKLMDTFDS
- test_details: HiBiT-Degradation, RET wild-type degradation assay (Nano-Glo HiBiT Lytic), 293T.144 cells
- Assay type: cell-based
- test_parameters: HiBiT-Degradation, 6.0 hours, read-out: 293T.144 RET (658-1114) 6.0 hours (DC50)
attribute_measured: DC50

Please look at this molecule and report its DC50: N#Cc1cnn2cc(-c3cnn(C4CCN(C(=O)CN5CCC(c6ccc(NC7CCC(=O)NC7=O)cc6F)CC5)CC4)c3)cc(-c3ccc(N4CC5CCC(C4)N5Cc4ccccn4)nc3)c12 (stereo not drawn) [Compound 62]
< 50 nM

Please look at this molecule and report its DC50: N#Cc1cnn2cc(-c3cnn(C4CCN(C(=O)CN5CCC(c6ccc(NC7CCC(=O)NC7=O)cc6F)CC5)CC4)c3)nc(-c3ccc(N4CCN(Cc5ccccn5)CC4)cc3)c12 (stereo not drawn) [Compound 61]
< 50 nM

Please look at this molecule and report its DC50: CC(C)NC(=O)C1(C)CCN(c2ccc(-c3cc(-c4cnn([C@H]5CC[C@H](CCN6CCC(c7ccc(NC8CCC(=O)NC8=O)cc7F)CC6)CC5)c4)cn4ncc(C#N)c34)cn2)CC1 (stereo partly drawn) [Compound 34]
< 50 nM
